experimental.target: protein kinase D2 (PKD2) (Homo sapiens, UniProt Q9BZL6)
Construct: This assay is performed with full length wild-type enzyme purchase from Invitrogen; purchased Invitrogen
Sequence (Q9BZL6 whole entry): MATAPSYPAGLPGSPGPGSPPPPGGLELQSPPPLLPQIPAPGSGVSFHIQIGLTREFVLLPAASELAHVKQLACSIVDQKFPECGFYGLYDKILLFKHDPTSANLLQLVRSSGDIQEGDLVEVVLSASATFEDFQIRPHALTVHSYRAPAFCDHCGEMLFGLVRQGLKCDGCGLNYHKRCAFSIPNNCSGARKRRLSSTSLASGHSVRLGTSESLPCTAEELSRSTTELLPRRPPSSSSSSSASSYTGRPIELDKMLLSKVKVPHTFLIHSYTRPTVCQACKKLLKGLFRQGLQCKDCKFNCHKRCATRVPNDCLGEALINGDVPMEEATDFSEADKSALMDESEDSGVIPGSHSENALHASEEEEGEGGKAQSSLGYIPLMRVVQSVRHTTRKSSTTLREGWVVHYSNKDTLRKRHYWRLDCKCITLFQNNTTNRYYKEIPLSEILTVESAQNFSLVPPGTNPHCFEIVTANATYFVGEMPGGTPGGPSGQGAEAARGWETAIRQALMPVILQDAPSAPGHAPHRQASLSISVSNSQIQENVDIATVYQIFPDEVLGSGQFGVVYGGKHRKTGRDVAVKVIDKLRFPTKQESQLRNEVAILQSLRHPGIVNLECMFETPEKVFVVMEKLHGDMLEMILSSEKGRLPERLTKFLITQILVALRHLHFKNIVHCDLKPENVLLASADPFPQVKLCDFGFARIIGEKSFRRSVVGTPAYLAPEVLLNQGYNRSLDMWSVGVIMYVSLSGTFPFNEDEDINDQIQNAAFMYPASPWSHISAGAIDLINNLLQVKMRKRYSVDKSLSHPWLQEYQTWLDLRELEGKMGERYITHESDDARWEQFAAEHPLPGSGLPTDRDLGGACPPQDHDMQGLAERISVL
measurement.description: PKD2 TR-FRET (LANCE) kinase assay
Type: biochemical
measurement.setup: full length wild-type enzyme, 20 μM ATP; read-out: Inhibitory Activity PKD2
readout.type: pIC50
// scale note: pIC50 = -log10(conc_M); give the bare number

Q: Look up and report measured pIC50 for this entry: c1cc2c(NC3CCCNC3)nc(-c3ccnc(NC4CCCCC4)c3)cc2cn1 (centres unmarked) [Example 15]
Result: 6.99

Q: Give pIC50 for CN(C)CC1CCN(c2nc(-c3ccnc(NC4CCCCC4)c3)cc3cnccc23)CC1 [Example 12]
Result: 7.20

Q: Read the entry CCNC(=O)N1CCN(c2nc(-c3ccnc(Nc4ccn(C)n4)c3)cc3cnccc23)CC1 [Example 18] and write its reported pIC50.
Result: 6.90

Q: Annotate the molecule c1cc2c(NC3CCNC3)nc(-c3ccnc(NC4CCCCC4)c3)cc2cn1 (centres unmarked) [Example 14] with its measured pIC50.
Result: 8.22

Q: Please look at this molecule and report its pIC50: CC(=O)N1CCN(c2nc(-c3ccnc(NC4CCCCC4)c3)cc3cnccc23)CC1 [Example 11]
Result: 6.86

These entries and their values trace back to patent US20120142685A1.
